Target: EGFR L858R (NCI-H3255 cells) (Homo sapiens, UniProt P00533, L858R)
Construct: NCI-H3255 (harboring EGFR heterozygous L858R mutation); host or cells: NCI-H3255
Sequence (P00533 25-1210 L858R): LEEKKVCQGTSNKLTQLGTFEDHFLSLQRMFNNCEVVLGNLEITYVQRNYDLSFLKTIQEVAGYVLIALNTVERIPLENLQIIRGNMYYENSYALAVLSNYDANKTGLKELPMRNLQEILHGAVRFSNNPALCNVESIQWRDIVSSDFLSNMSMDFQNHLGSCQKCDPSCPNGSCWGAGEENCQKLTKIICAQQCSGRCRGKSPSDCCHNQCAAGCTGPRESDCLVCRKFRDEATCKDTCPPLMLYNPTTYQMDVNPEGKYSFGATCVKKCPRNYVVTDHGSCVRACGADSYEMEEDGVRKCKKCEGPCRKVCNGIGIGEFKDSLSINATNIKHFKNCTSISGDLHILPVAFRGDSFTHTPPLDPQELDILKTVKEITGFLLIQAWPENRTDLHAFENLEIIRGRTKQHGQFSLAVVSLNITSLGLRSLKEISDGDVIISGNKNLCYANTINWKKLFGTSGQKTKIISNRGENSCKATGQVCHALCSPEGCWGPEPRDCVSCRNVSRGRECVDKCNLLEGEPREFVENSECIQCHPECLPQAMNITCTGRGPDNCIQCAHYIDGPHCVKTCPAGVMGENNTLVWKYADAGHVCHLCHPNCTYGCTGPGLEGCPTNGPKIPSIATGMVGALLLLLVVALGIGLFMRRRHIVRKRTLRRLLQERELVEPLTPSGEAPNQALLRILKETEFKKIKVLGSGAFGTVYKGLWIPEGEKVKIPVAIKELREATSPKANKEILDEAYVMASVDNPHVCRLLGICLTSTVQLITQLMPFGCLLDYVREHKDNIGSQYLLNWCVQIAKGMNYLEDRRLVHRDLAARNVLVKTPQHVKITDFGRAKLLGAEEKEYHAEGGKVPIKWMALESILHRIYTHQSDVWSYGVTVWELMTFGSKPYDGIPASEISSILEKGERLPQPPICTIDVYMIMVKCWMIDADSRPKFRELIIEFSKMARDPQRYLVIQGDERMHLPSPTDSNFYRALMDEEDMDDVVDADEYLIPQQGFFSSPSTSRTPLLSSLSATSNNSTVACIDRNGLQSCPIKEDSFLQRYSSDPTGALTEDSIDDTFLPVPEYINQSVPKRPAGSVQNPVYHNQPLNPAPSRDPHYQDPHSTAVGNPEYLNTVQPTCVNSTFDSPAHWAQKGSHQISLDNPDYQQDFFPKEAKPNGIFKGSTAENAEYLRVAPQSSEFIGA
Assay: EGFR (L858R) degradation analysis, Total EGFR (L858R) HTRF, NCI-H3255 cells
Format: cell-based
Conditions: 6 hours
Readout kind: DC50 (nM)

>>> val("O=C1CC[C@H](Nc2ccc(C3CCN(CC(=O)N4CCN(c5ccc(-c6cc(F)c7c(c6)C(=O)N(C(C(=O)Nc6nccs6)c6ncn8c6CCC8)C7)cn5)CC4)CC3)c(F)c2)C(=O)N1 (stereo partly drawn) [Compound 27]")
20

a. O=C1CC[C@H](Nc2ccc(C3CCN(CC(=O)N4CCC(n5cc(-c6cc(F)c7c(c6)C(=O)N(C(C(=O)Nc6nccs6)c6ncn8c6CCC8)C7)nn5)CC4)CC3)cc2)C(=O)N1 (stereo partly drawn) [Compound 30]
b. O=C1CCC(Nc2ccc(C3CCN(CC(=O)N4CCN(c5ccc(-c6cc(F)c7c(c6)C(=O)N(C(C(=O)Nc6ccccn6)c6ncn8c6CCC8)C7)cc5)CC4)CC3)cc2)C(=O)N1 (stereo not drawn) [Compound 19]
Rank a against b by their DC50 values and give the higher one. // respond with label for picked entry
a

----------
Molecular target: EGFR L858R (NCI-H3255 cells) (Homo sapiens, UniProt P00533, L858R)
Construct: NCI-H3255 (harboring EGFR heterozygous L858R mutation); host or cells: NCI-H3255
Assay: EGFR (L858R) degradation analysis, Total EGFR (L858R) HTRF, NCI-H3255 cells
Format: cell-based
Details: 6 hours
Readout kind: DC50 (nM)

>>> val("N#Cc1cc(NC2CCC(=O)NC2=O)ccc1C1CCN(CC(=O)N2CCC(Oc3ccc(-c4cc(F)c5c(c4)C(=O)N(C(C(=O)Nc4nccs4)c4ncn6c4CCC6)C5)cc3)CC2)CC1 (centres unmarked)")
16
>>> val("O=C1CC[C@H](Nc2ccc(C3CCN(CC(=O)N4CCC(Oc5ccc(-c6cc(F)c7c(c6)C(=O)N(C(C(=O)Nc6nccs6)c6ncn8c6CCC8)C7)cc5)CC4)CC3)cc2)C(=O)N1 (some centres unmarked)")
12

I. O=C1CCC(Nc2ccc(C3CCN(CC(=O)N4CCN(c5ccc(-c6cc(F)c7c(c6)C(=O)N(C(C(=O)Nc6nccs6)c6ncn8c6CCC8)C7)cc5)CC4)CC3)c(C(F)F)c2)C(=O)N1 (centres unmarked)
II. O=C1CCC(Nc2ccc(C3CCN(C(=O)C(=O)N4CCC(Oc5ccc(-c6cc(F)c7c(c6)C(=O)N(C(C(=O)Nc6nccs6)c6ncn8c6CCC8)C7)cc5)CC4)CC3)cc2)C(=O)N1 (centres unmarked)
III. Cn1nc(N2CCC(=O)NC2=O)c2ccc(C3CCN(CC(=O)N4CCN(c5ccc(-c6cc(F)c7cn(C(C(=O)Nc8nccs8)c8ncn9c8CCC9)nc7c6)cn5)CC4)CC3)cc21 (centres unmarked)
Order by DC50, ascending. A ranking is expressed here by listing the labels in the requested order.
I, II, III

----------
Biological target: EGFR T790M/L858R (NCI-H1975 cells) (Homo sapiens, UniProt P00533, L858R/T790M)
Construct: NCI-H1975 (harboring EGFR heterozygous T790M/L858R mutations); host or cells: NCI-H1975
Sequence (P00533 25-1210 T790M/L858R): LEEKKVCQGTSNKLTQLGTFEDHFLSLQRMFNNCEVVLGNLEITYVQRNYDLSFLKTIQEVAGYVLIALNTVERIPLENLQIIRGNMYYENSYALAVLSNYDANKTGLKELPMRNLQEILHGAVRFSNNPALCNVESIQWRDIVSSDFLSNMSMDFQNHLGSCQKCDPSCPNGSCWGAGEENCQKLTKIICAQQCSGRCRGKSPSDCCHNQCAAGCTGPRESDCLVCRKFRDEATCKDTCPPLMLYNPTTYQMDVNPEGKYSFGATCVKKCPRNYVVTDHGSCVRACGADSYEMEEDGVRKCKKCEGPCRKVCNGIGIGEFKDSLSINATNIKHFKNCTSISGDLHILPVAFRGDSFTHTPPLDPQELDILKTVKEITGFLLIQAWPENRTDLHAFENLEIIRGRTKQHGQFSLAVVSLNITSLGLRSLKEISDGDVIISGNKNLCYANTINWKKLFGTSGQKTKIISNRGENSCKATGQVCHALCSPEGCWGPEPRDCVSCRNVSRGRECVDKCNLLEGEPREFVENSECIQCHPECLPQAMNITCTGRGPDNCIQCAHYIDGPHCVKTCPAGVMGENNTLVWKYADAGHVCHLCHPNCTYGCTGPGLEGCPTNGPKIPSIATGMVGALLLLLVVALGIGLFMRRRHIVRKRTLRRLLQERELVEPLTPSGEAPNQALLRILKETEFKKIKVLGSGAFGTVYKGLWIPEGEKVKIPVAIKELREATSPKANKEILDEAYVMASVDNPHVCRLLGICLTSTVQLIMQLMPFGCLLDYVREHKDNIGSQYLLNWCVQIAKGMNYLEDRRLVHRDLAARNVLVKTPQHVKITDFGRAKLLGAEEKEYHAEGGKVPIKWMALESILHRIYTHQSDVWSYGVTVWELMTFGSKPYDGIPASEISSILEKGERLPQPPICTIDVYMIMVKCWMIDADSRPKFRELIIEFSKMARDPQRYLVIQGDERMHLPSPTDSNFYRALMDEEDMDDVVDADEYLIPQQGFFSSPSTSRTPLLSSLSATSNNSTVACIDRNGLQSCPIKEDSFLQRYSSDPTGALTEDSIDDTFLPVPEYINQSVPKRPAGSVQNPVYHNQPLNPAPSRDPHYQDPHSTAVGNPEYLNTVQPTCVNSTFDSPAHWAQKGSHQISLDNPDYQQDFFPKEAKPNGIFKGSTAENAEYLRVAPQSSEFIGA
Test: EGFR (L858R) degradation analysis, Total EGFR (L858R) HTRF, NCI-H1975 cells
Assay type: cell-based
Conditions: 6 hours, class symbols
DC50 overview

>>> val("O=C1CCC(Nc2cc(F)c(N3CCC(O)(CC(=O)N4CCC5(CC4)CN(c4ccc(-c6cc(F)c7c(c6)C(=O)N(C(C(=O)Nc6nccs6)c6ncn8c6CCC8)C7)cc4)C5)CC3)c(F)c2)C(=O)N1 (centres unmarked)")
"50 to 150 nM"
>>> val("O=C1CCC(c2ccc(N3CCC(O)(CC(=O)N4CCC5(CC4)CN(c4ccc(-c6cc(F)c7c(c6)C(=O)N(C(C(=O)Nc6nccs6)c6ncn8c6CCC8)C7)cc4)C5)CC3)c(F)c2)C(=O)N1 (centres unmarked)")
"50 to 150 nM"
>>> val("O=C1CC[C@H](Nc2ccc(N3CCC(O)(C(=O)N4CC5(C4)CN(c4ccc(-c6cc(F)c7c(c6)C(=O)N(C(C(=O)Nc6nccs6)c6ncn8c6CCC8)C7)cc4)C5)CC3)c(F)c2)C(=O)N1 (some centres unmarked)")
"< 50 nM"

Provide the documented DC50 with EGFR T790M/L858R (NCI-H1975 cells) (Homo sapiens, UniProt P00533, L858R/T790M) as the system for O=C1CCC(Nc2cc(F)c(N3CCC(O)(CC(=O)N4CC5(C4)CN(c4ccc(-c6cc(F)c7c(c6)C(=O)N(C(C(=O)Nc6nccs6)c6ncn8c6CCC8)C7)cc4)C5)CC3)c(Cl)c2)C(=O)N1 (centres unmarked)
50 to 150 nM

Provide the documented DC50 with EGFR T790M/L858R (NCI-H1975 cells) (Homo sapiens, UniProt P00533, L858R/T790M) as the system for O=C1CCC(c2ccc(N3CCC(O)(CC(=O)N4CC5(CCN(c6ccc(-c7cc(F)c8c(c7)C(=O)N(C(C(=O)Nc7nccs7)c7ncn9c7CCC9)C8)cc6)CC5)C4)CC3)c(F)c2)C(=O)N1 (centres unmarked)
50 to 150 nM
